tested on: Daphnia magna; test: 48 h LC50 (-log10 mol/L); higher = more toxic
Give T when the value for 48 h LC50 (-log10 mol/L) is at least 5. Give F when it is less.

Example entries and their recorded answers appear below.
[
  {
    "smiles.entry": "C=CC=O",
    "class": "T"
  },
  {
    "smiles.entry": "Nc1cc(Cl)c(Cl)cc1Cl",
    "class": "F"
  },
  {
    "smiles.entry": "Nc1ccc(Cl)cc1Cl",
    "class": "T"
  },
  {
    "smiles.entry": "Cc1ccc(C(=O)c2cc(O)c(O)c([N+](=O)[O-])c2)cc1",
    "class": "F"
  },
  {
    "smiles.entry": "C=C(C)[C@H]1Cc2c(ccc3c2O[C@@H]2COc4cc(OC)c(OC)cc4[C@@H]2C3=O)O1",
    "class": "T"
  },
  {
    "smiles.entry": "CCc1nc(N)nc(N)c1-c1ccc(Cl)cc1",
    "class": "F"
  }
]

Query: Dear colleague, could you confirm whether CCO has 48 h LC50 (-log10 mol/L) at or above 5?
Reply: F

Query: Similarly, CCCCCCCCCCC[C@@H](C[C@@H]1OC(=O)[C@H]1CCCCCC)OC(=O)[C@H](CC(C)C)NC=O ?
Reply: F

Query: Another compound to check: CCCCN=C=S
Reply: T

Query: Try CCc1ccc(C)nc1 next.
Reply: F

====

test system: Pimephales promelas; test: 96 h LC50 (-log10 mol/L); higher = more toxic
// reported 96 h LC50 (-log10 mol/L) for each item listed
Provide a numeric answer; units are not to be included.

[
  {
    "smiles.entry": "CCOP(=O)(OCC)Oc1ccc([N+](=O)[O-])cc1",
    "system": "Pimephales promelas",
    "value.measured": 5.98
  },
  {
    "smiles.entry": "CCOP(=S)(OCC)SCSCC",
    "system": "Pimephales promelas",
    "value.measured": 6.02
  },
  {
    "smiles.entry": "CC(=O)c1ccc(Cl)cc1Cl",
    "system": "Pimephales promelas",
    "value.measured": 4.21
  }
]

Query: Reported 96 h LC50 (-log10 mol/L) for Pimephales promelas, given CN(C)C(=O)Nc1ccc(Cl)c(Cl)c1 ?
Reply: 4.21

Query: Can you handle CCCCN next?
Reply: 2.44

Query: Query COc1cc(OC)c(OC)cc1C=O next
Reply: 3.6

Query: Follow-up item: O=S(c1ccccc1)c1ccccc1
Reply: 3.37

====

Overview of reported 48 h IGC50 (-log10 mol/L) across a group of molecules:
system: Tetrahymena pyriformis; assay: 48 h IGC50 (-log10 mol/L); higher = more toxic
// return a plain number; no unit text

[
  {
    "molecule": "C/C=C/C(=O)OC(C)(C)C",
    "system": "Tetrahymena pyriformis",
    "value.measured": 2.36
  },
  {
    "molecule": "O=C(CBr)Nc1cc([N+](=O)[O-])ccc1O",
    "system": "Tetrahymena pyriformis",
    "value.measured": 3.87
  }
]

Query: Fill in: 48 h IGC50 (-log10 mol/L) of CCCCC#CC(=O)OCC is ___
Reply: 4.11

Query: Also CC(C)C#N , if possible.
Reply: 1.38

Query: Likewise for OCc1cccc(Cl)c1 ?
Reply: 3.15

Query: Can you handle CCCCNC(N)=S next?
Reply: 2.81

Query: Now consider Clc1cc(Cl)c(Cl)cc1Cl .
Reply: 5

Query: Can you check C=CCCO next?
Reply: 1.3

Query: N#Cc1ccc([N+](=O)[O-])cc1 , same question.
Reply: 3.57

Query: Now the same for CCCCCCCCCCC=O
Reply: 4.69

Query: Here is the next molecule: CCOC(=O)CC#N
Reply: 1.77

Query: Now give it for Cc1cccc2ccccc12 too.
Reply: 3.74

Query: Now consider CCCOC(=O)CC and answer again.
Reply: 2.19

Query: What do we get for COc1ccc(C(C)=O)cc1 ?
Reply: 2.87

Query: Check CCOC(=O)/C=C/c1ccccc1 too.
Reply: 3.99

Query: Another molecule to check: Oc1cccc(O)c1O
Reply: 3.85

Query: Again, but for CCOC(=O)CCCCC(=O)OCC
Reply: 2.87

Query: Repeat with CCCCCC#CCCO
Reply: 3.34

Query: Another: COc1cccc(Cl)c1
Reply: 3.29

Where do the numbers come from? From EPA's aquatic toxicity sets.
